Entry source: the supplement of paper PMC11208160

Experiment: recombinant barcode read abundance after kanamycin selection (control-corrected) (log10(CPM+1)); higher = more efficient recombination; sequences stand for … in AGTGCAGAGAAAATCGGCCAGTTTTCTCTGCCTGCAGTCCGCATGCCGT…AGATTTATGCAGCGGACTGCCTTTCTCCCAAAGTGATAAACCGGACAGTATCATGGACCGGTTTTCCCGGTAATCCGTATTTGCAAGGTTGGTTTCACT; site = the 11-nt target;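 note: IS621 recombinase and bridge RNA in Escherichia coli cells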
Category scheme (recombinant barcode read abundance (log10)): low range: < 0.07; mid range: ≥ 0.07 and < 0.6; high range: ≥ 0.6

# bin lookup: classify ACCAGTACTTGGGTTCTAACCTGTTGCCT (site ACCGGTACTAG) by its recombinant barcode read abundance (log10)
low range

Which bin, given its recombinant barcode read abundance (log10), does GATTATACTTGGGTTCTAACCTGTTGCTT (site GATTATACTAA) occupy?
low range

Record TGTATGTCTTGGGTTCTAACCTGTTGCCT (site AGTATGTCTAG) — which class?
low range

Which class does CCGCAGCCTTGGGTTCTAACCTGTTGCCT (site CCGGAGCCTAG) fall in?
mid range

Lab note: which band did CGTCTAGCTTGGGTTCTAACCTGTTGCCA (site CGTCTAGCTTG) land in?
mid range

Which class is correct for the following sequence? GGGACTACTTGGGTTCTAACCTGTTGCGG (site GGGACTACTCC)
high range

Exam item: assign CAGTATCCTTGGGTTCTAACCTGTTGCCT (site CAGTATCCTAG) to the correct category.
high range

Which class is correct for the following sequence? CAAGTTCCTTGGGTTCTAACCTGTTGCCT (site CAAGTTCCTAG)
high range

Given CAGGCGACTTGGGTTCTAACCTGTTGCCT (site CAGGCGCCTAG) , name the class its recombinant barcode read abundance (log10) places it in.
mid range

Input CAACCGACTTGGGTTCTAACCTGTTGCCT (site CAACCGTCTAG) ; output its category
low range

Pick a category. Item: GGAGACGCTTGGGTTCTAACCTGTTGCCT (site GGAGAGGCTAG)
high range

Category lookup for the sequence CTAGTAACTTGGGTTCTAACCTGTTGCCA (site ACGCGTGCTCC)
low range

# bin label for TCCTGTACTTGGGTTCTAACCTGTTGCCT (site TCCTGTACTAG)
mid range

For CCTAACCCTTGGGTTCTAACCTGTTGCGT (site CCTAAACCTAC) , which recombinant barcode read abundance (log10) bin applies?
mid range

Note: place this sequence into its band. Item: TCGCCTGCTTGGGTTCTAACCTGTTGCCT (site TCGCCTACTAG)
mid range

Could you place GTAACCTCTTGGGTTCTAACCTGTTGCCA (site GTAACCTCTCG) in its proper category? Many thanks.
low range

Please let me know in which category the item CAGAGAGCTTGGGTTCTAACCTGTTGCCT (site CCGAGAGCTAG) belongs.
low range

Hi there! Could you help me figure out the category for GAGGGCCCTTGGGTTCTAACCTGTTGCAG (site GAGGGCCCTCC) please?
high range

Could you place TACTACCCTTGGGTTCTAACCTGTTGCCT (site TACTACCCTAG) in its proper category? Many thanks.
high range

Category of CACACGCCTTGGGTTCTAACCTGTTGCCT (site CACACGCCTAG) , please.
mid range
